Tested System: FAK (Homo sapiens, UniProt Q05397)
Construct: gene PTK2
Sequence (Q05397 2-1052): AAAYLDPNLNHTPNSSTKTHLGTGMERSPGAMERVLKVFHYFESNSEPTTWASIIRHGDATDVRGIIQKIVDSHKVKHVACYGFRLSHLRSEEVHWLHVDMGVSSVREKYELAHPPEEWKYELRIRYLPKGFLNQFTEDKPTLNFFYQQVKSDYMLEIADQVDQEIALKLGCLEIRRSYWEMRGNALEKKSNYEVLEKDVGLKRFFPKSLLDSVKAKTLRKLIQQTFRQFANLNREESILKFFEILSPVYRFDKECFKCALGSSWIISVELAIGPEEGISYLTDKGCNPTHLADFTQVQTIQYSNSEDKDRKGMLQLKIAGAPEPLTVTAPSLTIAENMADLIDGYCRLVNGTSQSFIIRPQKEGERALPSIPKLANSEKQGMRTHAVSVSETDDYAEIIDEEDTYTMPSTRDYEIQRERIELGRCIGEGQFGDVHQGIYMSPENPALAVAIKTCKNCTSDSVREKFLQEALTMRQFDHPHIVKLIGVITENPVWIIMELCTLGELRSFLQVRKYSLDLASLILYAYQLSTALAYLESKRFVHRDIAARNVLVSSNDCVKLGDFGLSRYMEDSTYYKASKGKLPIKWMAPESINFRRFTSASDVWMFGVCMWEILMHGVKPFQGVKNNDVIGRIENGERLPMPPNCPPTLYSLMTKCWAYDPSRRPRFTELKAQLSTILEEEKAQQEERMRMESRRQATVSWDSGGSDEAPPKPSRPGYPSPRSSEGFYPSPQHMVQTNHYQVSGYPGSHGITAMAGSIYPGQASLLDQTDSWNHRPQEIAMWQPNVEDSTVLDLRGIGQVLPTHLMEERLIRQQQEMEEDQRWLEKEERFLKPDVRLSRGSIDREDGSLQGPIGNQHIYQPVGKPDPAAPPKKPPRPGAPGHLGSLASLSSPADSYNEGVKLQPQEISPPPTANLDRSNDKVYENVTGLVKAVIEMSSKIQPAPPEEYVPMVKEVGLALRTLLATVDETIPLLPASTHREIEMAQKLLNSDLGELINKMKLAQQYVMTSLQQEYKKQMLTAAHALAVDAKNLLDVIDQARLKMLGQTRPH
Assay Name: HTRF kinase assay, % inhibition at […]
Type: biochemical
Reported inhibition at 0.1 µM by item:
Numeric answer only, unit % assumed.

- Compound: "CN(c1ccccc1CNc1nc(Nc2ccc(N3CCN(CCCOCCC(=O)NCCNc4cccc5c4C(=O)N(C4CCC(=O)NC4=O)C5=O)CC3)cc2)ncc1C(F)(F)F)S(C)(=O)=O (centres unmarked)"
  Value Unit: "%"
  inhibition at 0.1 µM: 89

Exercise: Specify measured inhibition at 0.1 µM for CN(c1ccccc1CNc1nc(Nc2ccc(N3CCN(CCCCCC(=O)NCCNc4cccc5c4C(=O)N(C4CCC(=O)NC4=O)C5=O)CC3)cc2)ncc1C(F)(F)F)S(C)(=O)=O (centres unmarked) .
Solution: 86.1

Exercise: Specify measured inhibition at 0.1 µM for CN(c1ccccc1CNc1nc(Nc2ccc(N3CCN(CCCCC(=O)Nc4cccc5c4C(=O)N(C4CCC(=O)NC4=O)C5=O)CC3)cc2)ncc1C(F)(F)F)S(C)(=O)=O (centres unmarked) .
Solution: 91.2

Exercise: Specify measured inhibition at 0.1 µM for CN(c1ccccc1CNc1nc(Nc2ccc(N3CCN(CCCCC(=O)NCCNc4cccc5c4C(=O)N(C4CCC(=O)NC4=O)C5=O)CC3)cc2)ncc1C(F)(F)F)S(C)(=O)=O (centres unmarked) .
Solution: 93.5

Exercise: Specify measured inhibition at 0.1 µM for CN(c1ccccc1CNc1nc(Nc2ccc(N3CCN(CCCCCCC(=O)Nc4cccc5c4C(=O)N(C4CCC(=O)NC4=O)C5=O)CC3)cc2)ncc1C(F)(F)F)S(C)(=O)=O (centres unmarked) .
Solution: 87.5

---

Reported inhibition at 0.5 µM by item:
Tested System: FAK (Homo sapiens, UniProt Q05397)
Construct: gene PTK2
Assay Name: biochemical
Design: HTRF KinEASE-TK kinase assay with purified FAK, inhibition of substrate phosphorylation
Condition Details: read-out: FAK inhibition (%)^a / 0.5 μM
Numeric answer only, unit % assumed.

- Compound: "CN(c1ccccc1CNc1nc(Nc2ccc(N3CCN(CCOCCOCCNC(=O)CNc4cccc5c4C(=O)N(C4CCC(=O)NC4=O)C5=O)CC3)cc2)ncc1C(F)(F)F)S(C)(=O)=O (centres unmarked)"
  Tested System: "FAK (Homo sapiens, UniProt Q05397)"
  Value Unit: "%"
  inhibition at 0.5 µM: 98
- Compound: "CN(c1ccccc1CNc1nc(Nc2ccc(N3CCN(CCCOCCC(=O)NCCNc4cccc5c4C(=O)N(C4CCC(=O)NC4=O)C5=O)CC3)cc2)ncc1C(F)(F)F)S(C)(=O)=O (centres unmarked)"
  Tested System: "FAK (Homo sapiens, UniProt Q05397)"
  Value Unit: "%"
  inhibition at 0.5 µM: 98.8
- Compound: "CN(c1ccccc1CNc1nc(Nc2ccc(N3CCN(CCCCCCC(=O)Nc4cccc5c4C(=O)N(C4CCC(=O)NC4=O)C5=O)CC3)cc2)ncc1C(F)(F)F)S(C)(=O)=O (centres unmarked)"
  Tested System: "FAK (Homo sapiens, UniProt Q05397)"
  Value Unit: "%"
  inhibition at 0.5 µM: 95.4
- Compound: "CN(c1ccccc1CNc1nc(Nc2ccc(N3CCN(CCCCCC(=O)Nc4cccc5c4C(=O)N(C4CCC(=O)NC4=O)C5=O)CC3)cc2)ncc1C(F)(F)F)S(C)(=O)=O (centres unmarked)"
  Tested System: "FAK (Homo sapiens, UniProt Q05397)"
  Value Unit: "%"
  inhibition at 0.5 µM: 96.8
- Compound: "CN(c1ccccc1CNc1nc(Nc2ccc(N3CCN(CCCCCCC(=O)NCCNc4cccc5c4C(=O)N(C4CCC(=O)NC4=O)C5=O)CC3)cc2)ncc1C(F)(F)F)S(C)(=O)=O (centres unmarked)"
  Tested System: "FAK (Homo sapiens, UniProt Q05397)"
  Value Unit: "%"
  inhibition at 0.5 µM: 96.9
- Compound: "CN(c1ccccc1CNc1nc(Nc2ccc(N3CCN(CCCCCC(=O)NCCNc4cccc5c4C(=O)N(C4CCC(=O)NC4=O)C5=O)CC3)cc2)ncc1C(F)(F)F)S(C)(=O)=O (centres unmarked)"
  Tested System: "FAK (Homo sapiens, UniProt Q05397)"
  Value Unit: "%"
  inhibition at 0.5 µM: 98
- Compound: "CN(c1ccccc1CNc1nc(Nc2ccc(N3CCN(CCCCC(=O)NCCNc4cccc5c4C(=O)N(C4CCC(=O)NC4=O)C5=O)CC3)cc2)ncc1C(F)(F)F)S(C)(=O)=O (centres unmarked)"
  Tested System: "FAK (Homo sapiens, UniProt Q05397)"
  Value Unit: "%"
  inhibition at 0.5 µM: 98.6

Moving on to the next compound.
Exercise: Specify measured inhibition at 0.5 µM for CN(c1ccccc1CNc1nc(Nc2ccc(N3CCN(CCCCC(=O)Nc4cccc5c4C(=O)N(C4CCC(=O)NC4=O)C5=O)CC3)cc2)ncc1C(F)(F)F)S(C)(=O)=O (centres unmarked) .
Solution: 98
